# System: SK-OV-3 ovarian
# protocol: NCI-60 one-dose screen, 48 h (100 = growth as untreated, 0 = no growth, -100 = all killed)
# study_conditions: 10 µM unless noted
This is part of a sample that, as a whole, favours compounds with a hit. Of some 83,000 tested, about 20% had one in any assay.
Listed here are molecules together with their documented growth.
recorded_metric: growth (%)

>>> observed("C=C(C)[C@@H]1CC[C@]2(C(=O)N3CCN(C)CC3)CC[C@]3(C)[C@H](CC[C@@H]4[C@@]5(C)CCC(=O)C(C)(C)[C@@H]5CC[C@]43C)[C@@H]12")
104
>>> observed("N#Cc1c(Nc2ccccc2)nn2cc(-c3nc4ccccc4s3)c(N)nc12")
90.2
>>> observed("COc1cc2ncnc(Nc3ccc(C(=O)/C=C/c4ccc(C(F)(F)F)cc4F)cc3)c2cc1OC")
123
>>> observed("Nc1ccccc1NC(=O)c1ccc(CN2CCC/C(=C\\c3cccc(Cl)c3)C2=O)cc1")
13.1

----------
# Tested on: TK-10 renal
# protocol: NCI-60 one-dose screen, 48 h (100 = growth as untreated, 0 = no growth, -100 = all killed)
# study_conditions: 10 µM unless noted
This is part of a sample that, as a whole, favours compounds with a hit. Of some 83,000 tested, about 20% had one in any assay.
recorded_metric: growth (%)

>>> observed("Cc1ccc2[nH]c(=S)n(-c3ccc(S(=O)(=O)Nc4ccc(Cl)nn4)cc3)c(=O)c2c1")
100
>>> observed("Cc1ccc(O)c(C(=O)O)c1")
72.7
>>> observed("C=C1C(=O)O[C@H]2[C@H]1CC/C(COC(=O)NCCc1c[nH]c3ccc(Cl)cc13)=C\\CC[C@@]1(C)O[C@@H]21")
-97.2
>>> observed("CCc1nc(C)cn1C(=O)OCc1nc2nc(Cl)nc(N3CCOCC3)c2[nH]1")
-91.5
>>> observed("COc1ccc(-n2cc(-c3cc(OC)c(OC)c(OC)c3)n(C(C)=O)c2=O)cc1")
105
>>> observed("CN1CCN(c2ccc(NC3=C(Cl)C(=O)c4ncccc4C3=O)cc2C#N)CC1")
85.4
>>> observed("O=S(=O)(NCCCNc1nccc(-c2c(-c3ccccc3)nc3occn23)n1)c1ccc(Cl)cc1")
102
>>> observed("O=C(CN1CCOCC1)Nc1ccc2ncnc(Nc3ccc(Oc4cccc(C(F)(F)F)c4)c(Cl)c3)c2c1")
38.4
>>> observed("CCCC1C(C(=O)OCC)=C(N)Oc2cc(O)ccc21 (configuration not stated)")
105
>>> observed("C=CCn1c(SCC(=O)Nc2ccc(C(=O)/C=C/c3cc(OC)c(OC)c(OC)c3)cc2)nnc1-c1cc(-c2ccc(S(C)(=O)=O)cc2)nc2ccccc12")
159
>>> observed("CCNC(=O)c1[nH]cc(-c2ccc(OC)cc2)c1-c1cc(OC)cc(OC)c1")
115
>>> observed("O=c1nc2n(nc1/C=C/c1ccco1)CC(c1ccc(Cl)cc1)=NN2")
104
>>> observed("CCCCCCCCCCCCCCCC(=O)OC[C@@]1(O)C[C@@]23CC[C@@H]4C(C)(C)[C@H](O)CC[C@@]4(C)[C@@H]2CC[C@H]1C3")
101
>>> observed("COc1ccc(NC(=O)c2sc3nc(C)c(C(=O)CCc4cccc(OC)c4)cc3c2N)cc1")
85.4
>>> observed("Cc1cc(NC(=O)c2cnc(N3CCN(CCOCCOCCOCCOCCC(=O)N[C@H](C(=O)N4C[C@H](O)C[C@H]4C(=O)N[C@@H](C)c4ccc(-c5scnc5C)cc4)C(C)(C)C)CC3)cn2)c2ncccc2c1")
69.3
>>> observed("CS(=O)(=O)OCCN(CCOS(C)(=O)=O)c1ccc(/C=N/Nc2ccc([N+](=O)[O-])cc2[N+](=O)[O-])cc1")
112
>>> observed("Clc1ccc(N2N=C(c3cccc(Nc4ccncc4)c3)CC2c2ccc3c(c2)OCO3)cc1 (configuration not stated)")
83.5
